biological target: GHSR1a (Homo sapiens); test: Calcium FLIPR assay, GHSR-1a agonism; details: HEK293/GHSR1a cells
pEC50: −log10 of the molar value.
pEC50 for assorted molecules
Property: pEC50

> print(dat)
                                   molecule           assay.target  relation  result.number
1  CC(O)c1ccc(-c2ccc(C(C)NC(=O)N(C)C3CCN(C)CC3)c(Cl)c2Cl)s1 (stereo not shown) [Compound H0656]  GHSR1a (Homo sapiens)         =           7.82
2  CC(NC(=O)N(C)C1CCCCC1)c1ccc(-c2cncnc2)c(Cl)c1Cl (stereo not shown) [Compound H0584]  GHSR1a (Homo sapiens)         <           4.52
3  COC(=O)/C=C/c1ccc(C(C)NC(=O)N(C)C2CCN(C)CC2)c(Cl)c1Cl (stereo not shown) [Compound H0641]  GHSR1a (Homo sapiens)         =           7.46
4  CC(=O)c1cncc(-c2ccc(C(C)NC(=O)N(C)C3CCN(C)CC3)c(Cl)c2Cl)c1 (stereo not shown) [Compound H0690]  GHSR1a (Homo sapiens)         <           4.52

----------
experiment: Metabolic Stability (M = Mouse); format: in vitro ADME
Property: Metabolic Stability M

> print(dat)
                                    compound             result
 1  CC(NC(=O)N(C)C1CCN(C)CC1)c1ccc(CC#N)c(Cl)c1Cl (stereo not shown)      High H High M
 2  CC(NC(=O)N(C)C1CCN(C)CC1)c1ccc(/C=C/c2cccs2)c(Cl)c1Cl (stereo not shown)      High H High M
 3  CC(NC(=O)N(C)C1CCN(C)CC1)c1ccc(-c2c[nH]nn2)c(Cl)c1Cl (stereo not shown)      High H High M
 4  CC(NC(=O)N(C)C1CCN(C)CC1)c1ccc(C2CC2)c(Cl)c1Cl (stereo not shown)               High
 5  CC(NC(=O)N(O)C1CCN(C)CC1)c1ccc(C(F)F)c(Cl)c1Cl (stereo not shown)      High H High M
 6  CC(NC(=O)N(C)C1CCN(C)C1)c1ccc(-c2cn[nH]c2)c(Cl)c1Cl (stereo not shown)               Poor
 7  CCN(C(=O)NC(c1ccc(-c2cnccn2)c(Cl)c1Cl)C(F)(F)F)C1CCN(C)CC1 (stereo not shown)               High
 8  Cc1noc(-c2ccc(C(C)NC(=O)N(C)C3CCN(C)CC3)c(Cl)c2Cl)n1 (stereo not shown)      High H High M
 9  CN1CCC(N(O)C(=O)NC(CC2CC2)c2ccc(-c3cnccn3)c(Cl)c2Cl)CC1 (stereo not shown)      High H High M
10  CC(NC(=O)N(C)C1CCN(C)CC1)c1ccc(-c2cnc3[nH]ncc3c2)c(Cl)c1Cl (stereo not shown)               Poor
11  CC(NC(=O)N(C)C1CCN(C)CC1)c1ccc(-c2ccoc2)c(Cl)c1Cl (stereo not shown)      High H High M
12  CC[C@H](NC(=O)N(C)C1CCN(C)CC1)c1ccc(-c2cnccn2)c(Cl)c1Cl      High H High M
13  CN1CCC(N(C)C(=O)NC(CC2CC2)c2ccc(-c3ccc(C(N)=O)s3)c(Cl)c2Cl)CC1 (stereo not shown)  Medium H Medium M
14  CC(NC(=O)N(C)C1CCN(C)CC1)c1ccc(-c2cnn(C)c2)c(Cl)c1Cl (stereo not shown)      High H High M
15  CC(NC(=O)N(C)C1CCN(C)CC1)c1ccc(-c2ccc(C(N)=O)s2)c(Cl)c1Cl (stereo not shown)      High H High M
16  CCN(C(=O)NC(C)c1ccc(-c2cnccn2)c(Cl)c1Cl)C1CCN(C)CC1 (stereo not shown)               High
17  CC(NC(=O)N(C)C1CCN(C)CC1)c1ccc(-c2cncc(F)n2)c(Cl)c1Cl (stereo not shown)      High H High M
18  CC(NC(=O)N(C)C1CCN(C)CC1)c1ccc(-c2cccs2)c2ccccc12 (stereo not shown)  Medium H Medium M
19  CC(NC(=O)N(C)C1CCN(C)CC1)c1ccc(C#Cc2cscn2)c(Cl)c1Cl (stereo not shown)      High H High M
20  CN1CCC(N(C)C(=O)NC(COCc2cccc(CO)c2)c2ccc(-c3ccsc3)c(Cl)c2Cl)CC1 (stereo not shown)             Medium
21  C[C@H](NC(=O)N(C)[C@@H]1CCN(C)CC1(C)C)c1ccc(-c2cnccn2)c(Cl)c1Cl      High H High M
22  CN1CC[C@@H](N(C)C(=O)NC(c2ccc(-c3cnccn3)c(Cl)c2Cl)C(F)(F)F)C(C)(C)C1 (stereo partly shown)                Low
23  CC(NC(=O)N(C)C1CCN(C)CC1)c1ccc(-c2cccs2)c(Cl)c1Cl (single isomer, unassigned) [Compound H0563]  Medium H Medium M
24  CC(NC(=O)N(C)C1CCN(C)CC1)c1ccc(-c2c[nH]cn2)c(Cl)c1Cl (stereo not shown)      High H High M
25  CC(NC(=O)N(C)C1CCN(C)CC1)c1ccc(I)c(Cl)c1Cl (stereo not shown)  Medium H Medium M
26  Cc1cncc(-c2ccc(C(C)NC(=O)N(C)C3CCN(C)CC3)c(Cl)c2Cl)c1 (stereo not shown)  Medium H Medium M
27  CC(NC(=O)N(C)C1CCN(C)CC1)c1ccc(-c2ccc(C(N)=O)cc2)c(Cl)c1Cl (stereo not shown)             Medium

----------
target: GHSR1a (Homo sapiens); construct: expressed in transfected cells; host or cells: HEK293; test: Calcium FLIPR assay, GHSR-1a antagonism (reduction of ghrelin response); format: cell-based; details: HEK293/GHSR1a cells, ghrelin 10 nM
pIC50: −log10 of the molar value.
Each entry below lists one item and its recorded pIC50 value.
Property: pIC50

> print(dat)
                                   compound  property  result.number
1  CC(NC(=O)N(C)C1CCN(C)CC1)c1ccc(C#Cc2c[nH]cn2)c(Cl)c1Cl (centres unmarked)     pIC50           6.08
2  CC(NC(=O)N(C)C1CCN(C)C1)c1ccc(-c2cn[nH]c2)c(Cl)c1Cl (centres unmarked)     pIC50           7.92
3  CC(NC(=O)N(C)C1CCN(C)CC1)c1ccc(C#Cc2ccco2)c(Cl)c1Cl (centres unmarked)     pIC50           8.30
4  CC(NC(=O)N(C)C1CCN(C)CC1)c1ccc(-c2cncc(Cl)n2)c(Cl)c1Cl (centres unmarked)     pIC50           7.12
5  C=Cc1cncc(-c2ccc(C(C)NC(=O)N(C)C3CCN(C)CC3)c(Cl)c2Cl)c1 (centres unmarked)     pIC50           6.94
6  CC(NC(=O)N(C)C1CCN(C)CC1)c1ccc(-c2ccc(CO)s2)c(Cl)c1Cl (centres unmarked)     pIC50           8.40
7  CN1CCC(N(C)C(=O)NC(CC2CC2)c2ccc(-c3ccc(C(N)=O)s3)c(Cl)c2Cl)CC1 (centres unmarked)     pIC50           8.30
8  CC(NC(=O)N(C)C1CCN(C)CC1)c1ccc(-c2nnco2)c(Cl)c1Cl (centres unmarked)     pIC50           7.55

----------
Items are presented alongside their recorded EC50.
target: GHSR1a (Homo sapiens, UniProt Q92847); construct: expressed in transfected cells; host or cells: HEK293; assay: Calcium FLIPR assay, GHSR-1a agonism; format: cell-based; conditions: HEK293/GHSR1a cells
Sequence (Q92847 whole entry): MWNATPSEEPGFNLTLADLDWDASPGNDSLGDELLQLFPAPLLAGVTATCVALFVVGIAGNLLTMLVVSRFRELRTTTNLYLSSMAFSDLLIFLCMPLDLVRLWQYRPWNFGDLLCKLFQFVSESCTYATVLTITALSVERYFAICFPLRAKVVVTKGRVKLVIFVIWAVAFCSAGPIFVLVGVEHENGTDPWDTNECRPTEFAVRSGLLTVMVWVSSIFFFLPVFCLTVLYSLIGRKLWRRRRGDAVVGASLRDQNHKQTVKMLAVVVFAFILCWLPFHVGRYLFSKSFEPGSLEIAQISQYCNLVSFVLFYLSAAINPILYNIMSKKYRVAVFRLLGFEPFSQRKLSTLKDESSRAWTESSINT
Property: EC50

> print(dat)
                                   compound    result
1  CC(NC(=O)N(C)C1CCN(C)CC1)c1ccc(-c2cnc(C#N)nc2)c(Cl)c1Cl (stereo not shown) [Compound H0802]  0.153 µM
2  CC(NC(=O)N(C)C1CCN(C)CC1)c1ccc(-c2ccc(N)cc2)c(Cl)c1Cl (stereo not shown) [Compound H0517]   > 30 µM
3  C#Cc1ccc(C(C)NC(=O)N(C)C2CCN(C)CC2)c(Cl)c1Cl (stereo not shown) [Compound H0603]   > 30 µM
4  CC(NC(=O)N(C)C1CCN(C)CC1)c1ccc(C#Cc2c[nH]cn2)c(Cl)c1Cl (stereo not shown) [Compound H0763]   > 30 µM

----------
Listed molecules paired with reported inhibition in vivo at 10 mg/kg
tested on: C57BL/6J mice; test: Food intake test in mouse (GHSR1a antagonists); assay type: in vivo; settings: Mus musculus, ip, 1 h, i.p. 10 mg/kg
Property: inhibition in vivo at 10 mg/kg (%)

> print(dat)
                                   molecule  result.number
1  CC(NC(=O)N(C)C1CCN(C)CC1)c1ccc(C#Cc2ccco2)c(Cl)c1Cl (centres unmarked)             93
2  COc1ncc(-c2ccc(C(C)NC(=O)N(C)C3CCN(C)CC3)c(Cl)c2Cl)cn1 (centres unmarked)             48
3  CC(NC(=O)N(C)C1CCN(C)CC1)c1ccc(C#Cc2cccs2)c(Cl)c1Cl (centres unmarked)             75
4  CN1CCC(N(C)C(=O)NC(CC2CC2)c2ccc(-c3cnccn3)c(Cl)c2Cl)CC1 (centres unmarked)             90
5  CC(NC(=O)N(C)C1CCN(C)CC1)c1ccc(-c2ccccc2)c(Cl)c1Cl (centres unmarked)             66
6  C#Cc1ccc(C(C)NC(=O)N(C)C2CCN(C)CC2)c(Cl)c1Cl (single isomer, unassigned) [Compound H0678]             78
7  CC(=O)c1ccc(-c2ccc(C(C)NC(=O)N(C)C3CCN(C)CC3)c(Cl)c2Cl)s1 (centres unmarked)             70
8  CC(NC(=O)N(C)C1CCN(C)CC1)c1ccc(-c2ncccn2)c(Cl)c1Cl (centres unmarked)             34
